# credit: patent US20240116985A1

- TEST_TARGET: T1, full-length beta-Catenin (Uniprot ID P35222) (Homo sapiens (Human), UniProt P35222 2-781)
- T1 construct: the AlphaScreen assay uses a Histidine (Nickel Chelate) detection kit, so a His tag is likely there; also called B-Catenin; bCat
- T1 sequence: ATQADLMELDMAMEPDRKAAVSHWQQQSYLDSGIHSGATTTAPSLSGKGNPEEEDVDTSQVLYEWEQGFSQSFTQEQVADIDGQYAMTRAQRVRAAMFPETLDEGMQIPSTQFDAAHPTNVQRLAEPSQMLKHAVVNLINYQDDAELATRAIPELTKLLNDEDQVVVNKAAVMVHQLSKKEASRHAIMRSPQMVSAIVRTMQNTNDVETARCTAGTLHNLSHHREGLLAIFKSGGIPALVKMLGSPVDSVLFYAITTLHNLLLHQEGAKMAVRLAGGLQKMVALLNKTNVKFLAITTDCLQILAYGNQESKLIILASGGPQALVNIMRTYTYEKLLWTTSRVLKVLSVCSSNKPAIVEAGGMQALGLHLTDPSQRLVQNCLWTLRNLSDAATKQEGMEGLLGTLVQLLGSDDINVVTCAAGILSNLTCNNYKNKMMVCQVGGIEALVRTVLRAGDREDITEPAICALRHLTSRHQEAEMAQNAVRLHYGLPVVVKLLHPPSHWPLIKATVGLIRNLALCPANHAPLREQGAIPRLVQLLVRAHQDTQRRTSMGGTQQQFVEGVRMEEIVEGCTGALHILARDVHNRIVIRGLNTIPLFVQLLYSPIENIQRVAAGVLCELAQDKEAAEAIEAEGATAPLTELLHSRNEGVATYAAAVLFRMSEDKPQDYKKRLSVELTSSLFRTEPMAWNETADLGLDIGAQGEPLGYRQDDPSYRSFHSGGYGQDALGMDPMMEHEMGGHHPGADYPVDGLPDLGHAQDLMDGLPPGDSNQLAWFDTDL
- ASSAY_EXPLANATION: AlphaScreen competition; full-length beta-catenin with biotin-TCF4(10-53) probe as competitor
Starred links: 1 amine or outer side, 2 acyl side, 3 side chain; linkers in the order of their positions; H or OH if unused. Positions of bridges follow the written chain, without caps; N, C: chain ends. Non-standard residues stand in square brackets, D forms with d. Primed or numbered codes have the meaning given here. B5(4) = 2,2-bis(4-pentenyl)glycine = 2-amino-2-(pent-4-en-1-yl)hept-6-enoic acid (stitching residue), C=CCCCC(CCCC=C)(N[*:1])C(=O)[*:2]; PyrS(3) = (S)-1-((allyloxy)carbonyl)-3-aminopyrrolidine-3-carboxylic acid, stapling residue, C=CCOC(=O)N1CC[C@@](N[*:1])(C(=O)[*:2])C1; PyrS = (S)-1-((allyloxy)carbonyl)-3-aminopyrrolidine-3-carboxylic acid, C=CCOC(=O)N1CC[C@@](N[*:1])(C(=O)[*:2])C1; Trp(5-F) = N[C@@H](Cc1c[nH]c2ccc(F)cc12)C(=O)O; αAllylPro = C=CC[C@@]1(C(=O)O)CCCN1; R8 = C=CCCCCCC[C@@](C)(N)C(=O)O; S8 = C=CCCCCCC[C@](C)(N)C(=O)O; Aib = CC(C)(N)C(=O)O
binders and their reported pEC50
On this scale, pEC50 is minus log10 of a concentration expressed in M (mol/L).

Ac-[αAllylPro]DA[B5(4)]DEAAFV[S8]F[Trp(5-F)]Q-NH2 (staple 1-4, 4-11, stapled peptide composition) [I-146]    5.91

pEC50 for Ac-[Aib]DA[R8]DEAAFV[PyrS]FWQ-NH2 (staple 4-11; also: earlier-eluting staple isomer, stapled peptide) [I-157] is 5.39

pEC50 for Ac-[Aib]DA[R8]DEAAFV[PyrS(3)]FWQ-NH2 (staple 4-11; also: later-eluting staple isomer, stapled peptide) [I-158] is 5.66
